Target: copper complexes of Aβ1-42 peptide (Homo sapiens)
Construct: The β-amyloid peptide Aβ1-42 (Aβ1-42) was synthesised, purified (to a purity greater than 95%); made in house; host or cells: chemical peptide synthesis (no expression host)
Sequence (P05067 672-713 limits assumed, one chain of several): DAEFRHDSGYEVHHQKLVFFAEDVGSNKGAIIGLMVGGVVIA
Assay: Stability of H2O2 during the H2O2 production inhibition experiments (known amount of H2O2 added)
Assay type: biochemical
Conditions: Aβ1-42 0.2 μM, Cu(II) 0.4 μM, ascorbate 10 μM, ligand 0.4 μM, 3.0 nanomoles H2O2 added just after ascorbate
Parameter H2O2 assayed: see the listing below.

{"Compound": "c1cnc2c(Nc3cccc4cccnc34)cccc2c1 [Compound 12, Bis(8-quinoline)amine]", "H2O2 assayed / nmol": 1.7}
{"Compound": "O=C(c1ccc2cccc(O)c2n1)c1ccc2cccc(O)c2n1 [Compound 6, Bis(8-hydroxy-2-quinoline)methanone]", "H2O2 assayed / nmol": 3.6}
{"Compound": "Oc1cccc2ccc(C(F)(F)c3ccc4cccc(O)c4n3)nc12 [Compound 5]", "H2O2 assayed / nmol": 3.4}
{"Compound": "CC(C)(c1ccc2c(Cl)ccc(O)c2n1)c1ccc2c(Cl)ccc(O)c2n1 [Compound 4]", "H2O2 assayed / nmol": 3.3}

The measurements presented in this section are drawn from patent US20120277265A1.
